These data points were gathered from patent US20250027068.

target: pooled human IgG (human IgG1,2,3 and 4)
# Enzyme Activity Endpoint Assay (purified): scIgG per entry
measure: Enzyme Activity Endpoint Assay (purified): scIgG (ng/µL)

{"protein": "PRT-342 (protein) MTITSVWTKGVTPPTPEDFRENNEDVLHAPYLANQGWYDITKAFDGKDNLLCGAATAGNMLHWWFDQNKEEIERYLKKHPEKQKIIFGNQELFDVKAAIDTKDSQTNSKLFNYFRDKAFPNLSARQLGVMPDLVLDMFINGYYLNLGKTQSTDVNRPYQDKDKRGGIFDAVFTRGDQTTLLTARHDLKNKGLNEISDLIKQELTEGKALALSHTYANVSINHVINLWGADFDAEGNLEAIYVTDSDANPSIGMKKYFVGRNAHGKVAISAKKIEGDNIGAQVLGLFTLSTGQDIWQKLS", "value": 841}
{"protein": "PRT-360 (protein) MSQTEDSESLQRLRDIEDFQAEKKDQNVVYTKWLDGVDVKDHDFRKIVDGNSAYYATPLLNGRGWYDINKDFNRDSDKCAAAVAANMFHYWLDRNRDNVDRFLRQNPEKHGIIELPDGQLKLSDFLNTYESDDGYRDKSKLFDFISENFNGPVWTDKLLDNYINGYAYNYKYGRTIEDPTKNTSKINFFKEVFNEKILTNNHSIRNQNEFSVLLIEALYTGKAIGLSYGPAGLRHSLGHIISVWGADLDADGNVVAIYVTDSDDKKLTIGDERVGLKRYKISTDDEGRLRLTAYEETHNTGGQVRGLWTLDTGKQAWADYFDKTEQTGTDQAEQ", "value": 684}
{"protein": "PRT-369 (protein) MSQTEDSESLQRLRDIEDFQAEKKDQNVVYTKWLDGVDVKDHDFRKIVDGNIAYYATPLLNGRGLYDINKDFNRDNDKCAAAVAANMFHYWLDRNRDNVDRFLRQNPEKHGIIELPDGQLKLSDFLNTYESDDGYRDKSKLFDFISENFNGPVWTDKLLDNYINGYAYNYKYGRTIEDSTKNTSKINFFKEVFNEKILTNNHSIRNQNELSVLLSEALYTGKAIGLSYGPAGLRHSLGHIISVWGADLDADGNVVAIYVTDSDDKKLTIGDERVGLKRYKISTDDEGRLRLTAYEETHNTGGQVRGLWTLDTGKQAWADYFDKTEQTGTDQAEQ", "value": 445}
{"protein": "PRT-294 (protein) MVTSVWTKGVTPPADFTQGEDVFHAPYDANQGWYDITKTFNGKDDLLCGAATAGNMLHWWFDQNKEYIEAYLKKHPEKQKIMFGDQELLDVRKAINTKGSQKNSELFNYFRDKAFPNLSARRLGVMPDLVLDMFINGYYLNVTKTQTTDVNRTYQEKDKRGGIFDAVFTRGDQSKLLTSRHDFKEKGLKEISDLIKQELTEGKALGLSHTYANVRISHVINLWGADFDSDGNLKAIYVTDSDSNASIGMKKYGVGVNSAGKVAISAKEIKEDNIGAQVLGLFTLSTGQDIWNQTN", "value": 5}
{"protein": "PRT-524 (protein) MITSVWTKGVTPPTDFRKIVDGNIAYYHAPYKAGQGWYDITKAFDGGDNLLCGAATAGNMLHWWFDQNKEEIEAYLKKHPEKQKIIFNNQELFDLKAVINTKDSQTNSALFNYFKDKAFPNLSARRLGVFPDLVLDMFINGYYLNVYKTQTTDVNRTYQTKDRRGGIFDAVFTRGVQSKLLTERHDLKNKTLKEISDLIKQELTEGKALGLSHTYANVRINHVINLWGADFDSNGNLEAIYVTDSDTNASIGMKKYFVGVNSAGKVAISAKEIKEDNIGAQVLGLFTLSTGQDIWNQTNLEHHHHHH", "value": 0}
{"protein": "PRT-358 (protein) MSQTEDSESLQRLRDIEDFQAEKKDQNVVYTKWLDGVDVKDHDFRKIVDGNIAYYATPLLNGRGWYDINKDFNRDSDKCAAAVAANMFHYWLDRNRDNVDRFLRQNPEKHGIIELPDGQLKLSDFLNTYESDDGYRDKSKLFDFISENFNGPVWTDKLLDNYINGYAYNYKYGRTIEDPTKNTSKINFFKEVFNEKILTNNHSIRNQNEFSVLLIEALYTGKAIGLSYGPAGLRHSLGHIISVWGADLDADGNVVAIYVTDSDDKKLTIGDERVGLKRYKISTDDEGRLRLTAYEETHNTGGQVRGLWTLDTGKQAWADYFDKTEQTGTDQAEQ", "value": 375}
{"protein": "PRT-374 (protein) MSQTEDSESLQRLRDIEDFQAEKKKQNVVYTKWLDGVDVKDHDFRKIVDGNEAYYATPLLNGRGFYDINKDFNRDNDKCAAAVAANMFHYWLDRNRDNVDRFLRQNPEKHGIIELPDGQLKLSDFLNTYESDDGYRDKSKLFDFISENFNGPVWTDKLLDNYINGYAYNYKYGRTIEDSTKNTSKINFFKEVFNEKILTNNHSIRNQNELSVLLSEALYTGKAIGLSYGPAGLRHSLGHIISVWGADLDADGNVVAIYVTDSDDKKLTIGDERVGLKRYKISTDDEGRLRLTAYEETHNTGGQIRGLWTLDTGKQAWADYFDKTEQTGTDQAEQ", "value": 379}
{"protein": "PRT-366 (protein) MSQTEDSESLQRLRDIEDFQAEKEKQNVVYTKWLDGVDVKDHDFRKIVDGNSAYYATPLLNGRGFYDINKDFNRDNDKCAAAVAANMFHYWLDRNRDNVDRFLRQNPEKHGIIELPDGQLKLSDFLNTYESDDGYRDKSKLFDFISNNFNGPVWTDKLLDNYINGYAYNYKYGRTIEDSTKNTSKINFFKEVFNEKILTNNHSIRNQNEFSVLLSEALYTGKAIGLSYGPAGLRHSLGHIISVWGADLDADGNVVAIYVTDSDDKKLTIGDERVGLKRYKISTDDEGRLRLTAYEETHNTGGQVRGLWTLDTGKQAWADYFDKTEQTGTDQAEQ", "value": 472}
{"protein": "PRT-333 (protein) MTITSVWTKGVTPPTPEDFRENNEDVLHAPYVANQGWYDITKTFDGKDNLLCGAATAGNMLHWWFDQNKEEIERYLKKHPEKQKIIFGNQELFDVKAAIDTKDSQTNSKLFNYFRDKAFPGLSARQLGVFPDLVLDMFINGYYLNLGKTQSTDVNRPYQDKDKRGGIFDAVFTRGVQTTLLTARHDLKNKGLNEISDLIKQELTEGKALALSHTYANVRINHVINLWGADFDAEGNLIAIYVTDSDANPSIGMKKYFVGRNANGKVAISAKKIEGDNIGAQVLGLFTLSTGQDIWQKLS", "value": 0}
